# measured-target: Tyrosine-protein phosphatase non-receptor type 7 (Homo sapiens)
# Sequence (P35236 whole entry): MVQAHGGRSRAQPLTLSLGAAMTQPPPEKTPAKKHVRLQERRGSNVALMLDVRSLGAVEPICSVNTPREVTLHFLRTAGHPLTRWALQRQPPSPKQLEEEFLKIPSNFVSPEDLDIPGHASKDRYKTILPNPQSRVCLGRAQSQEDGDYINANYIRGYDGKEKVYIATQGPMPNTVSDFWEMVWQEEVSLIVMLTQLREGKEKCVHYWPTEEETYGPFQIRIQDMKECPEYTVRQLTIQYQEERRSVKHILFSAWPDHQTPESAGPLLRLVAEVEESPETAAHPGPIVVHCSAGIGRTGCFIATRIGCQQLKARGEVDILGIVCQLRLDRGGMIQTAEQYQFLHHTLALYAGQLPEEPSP
# measurement-notes: redox-active compounds inhibiting HePTP phosphatase – biochemical, fluorescence, mechanism study (AID 2068)
# Format: functional
Activity calls are given as the source filed them.
API: response.call in active, inactive

Test call for this compound, please: COc1cc(C(=S)NCc2ccc(O)cc2)ccc1O active

Would you mind telling me which call this test gave CCOc1ccc(-n2c(N)c(C(=O)N3CCN(C)CC3)sc2=S)cc1 ? inactive

Outcome logged for O=C(NCCC1=CCCCC1)Nc1ccc2nc(-c3ccco3)c(-c3ccco3)nc2c1 in this assay: active

What is the recorded call for this compound in the test? COc1cc(C(=S)NCc2ccc(C)cc2C)ccc1O active

----------
# measured-target: G-protein coupled receptor 55 (Homo sapiens, UniProt Q9Y2T6)
# Sequence (Q9Y2T6 whole entry): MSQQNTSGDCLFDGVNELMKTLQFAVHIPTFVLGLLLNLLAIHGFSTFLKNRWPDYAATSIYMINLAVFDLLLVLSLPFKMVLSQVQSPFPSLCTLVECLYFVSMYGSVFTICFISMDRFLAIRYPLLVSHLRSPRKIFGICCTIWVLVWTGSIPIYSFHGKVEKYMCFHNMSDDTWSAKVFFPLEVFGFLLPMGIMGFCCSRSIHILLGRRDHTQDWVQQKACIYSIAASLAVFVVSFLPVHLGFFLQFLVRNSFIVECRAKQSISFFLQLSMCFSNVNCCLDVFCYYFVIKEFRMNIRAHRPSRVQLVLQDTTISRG
# measurement-notes: selective activators of receptor GPR55 – imaging, U2OS cells, beta-arrestin-GFP redistribution, primary screen (AID 1961)
# Format: functional
Calls of active or inactive are those of the source.
endpoint-label: EC50

Item: Cc1cccc(N2CCN(C(=O)c3cc(S(=O)(=O)N(C)C)ccc3N3CCCC3)CC2)c1C | EC50: 0.508 µM (active)

# EC50 (compound: COc1ccc(/C=C2\Sc3ccc(C(=O)NC4CC4)cc3N(C)C2=O)cc1OC ) is > 32 µM (inactive)

COCc1nnc(NC(=O)CCSc2ccccc2)s1 has a reported EC50 of > 32 µM (inactive)

EC50 in this record for CCc1ccc(Nc2n[n+](-c3ccccc3)c(/C=C/c3ccccc3)s2)cc1 : 1.59 µM (active)

----------
# measured-target: Protein Wnt-3a (Mus musculus, UniProt P27467)
# Sequence (P27467 whole entry): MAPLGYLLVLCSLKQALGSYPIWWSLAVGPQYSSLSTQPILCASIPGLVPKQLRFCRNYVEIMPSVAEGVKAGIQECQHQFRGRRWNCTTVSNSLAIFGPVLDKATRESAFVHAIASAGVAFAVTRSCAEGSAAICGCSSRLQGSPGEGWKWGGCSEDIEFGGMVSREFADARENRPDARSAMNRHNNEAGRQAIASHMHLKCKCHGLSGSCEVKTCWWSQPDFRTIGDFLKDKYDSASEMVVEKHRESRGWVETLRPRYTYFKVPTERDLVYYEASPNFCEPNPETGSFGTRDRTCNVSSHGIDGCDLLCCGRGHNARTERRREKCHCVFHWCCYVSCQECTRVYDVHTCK
# measurement-notes: antagonism of Wnt3a pathway luciferase reporter – Wnt-LIGHT cells, luminescence, selectivity assay for Gli-SUFU antagonist project, dose response (AID 651570);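 further: Wnt-LIGHT reporter cells stimulated with conditioned medium from Wnt3a-producing cells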
# Format: functional
# details: read-out: IC50_Mean
Activity calls are given as the source filed them.
For each entry below, report its IC50 value.

O=S(=O)(NCc1ccncc1)c1ccc(S(=O)(=O)NCC2CCCO2)cc1 (centres undefined) has a reported IC50 of 7.09 µM (active)

The compound listed as CCCCCCn1c(=O)c(C(=O)Nc2cnccn2)c(O)c2ccccc21 shows IC50 equal to 3.55 µM (active)

Looking up COc1ccc(NS(=O)(=O)c2cccc(NC(=O)c3ccc(S(=O)(=O)N4CCCCCC4)cc3)c2)cc1 , I found its IC50 recorded as 1.76 µM (active)

In plain terms, Nc1nc2ccccc2n1/N=C/c1ccc([N+](=O)[O-])s1 has a documented IC50 of 15.3 µM (active)

----------
Consider the following molecules; for each one, report its EC50.
# measured-target: Zinc finger protein mex-5 (Caenorhabditis elegans, UniProt Q9XUB2)
# Sequence (Q9XUB2 whole entry): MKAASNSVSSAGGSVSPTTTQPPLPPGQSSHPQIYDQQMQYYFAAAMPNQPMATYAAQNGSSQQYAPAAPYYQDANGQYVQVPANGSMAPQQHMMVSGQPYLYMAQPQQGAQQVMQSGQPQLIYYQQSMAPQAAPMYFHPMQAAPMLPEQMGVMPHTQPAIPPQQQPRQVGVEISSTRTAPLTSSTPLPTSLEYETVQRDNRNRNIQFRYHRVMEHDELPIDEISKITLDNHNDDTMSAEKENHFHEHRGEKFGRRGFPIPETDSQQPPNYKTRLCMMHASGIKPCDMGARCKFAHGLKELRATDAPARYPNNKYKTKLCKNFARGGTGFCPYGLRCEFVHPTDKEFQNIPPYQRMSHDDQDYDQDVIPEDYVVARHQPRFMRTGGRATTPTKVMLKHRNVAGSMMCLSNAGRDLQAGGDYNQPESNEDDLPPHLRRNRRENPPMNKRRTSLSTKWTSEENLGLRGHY
# measurement-notes: potency of MEX-5 RNA-binding blockers – biochemical, C. elegans, fluorescence polarization, dose response (AID 1960)
Calls of active or inactive are those of the source.

response.value for COc1ccc(C2c3cc(OC)c(OC)cc3CCN2S(C)(=O)=O)cc1OC (stereo not drawn) (field: EC50) = > 300 µM (not active)

Recorded result, Cc1c(N/C=C2\C(=O)NC(=O)N(Cc3ccccc3)C2=O)c(=O)n(-c2ccccc2)n1C , EC50: > 300 µM (not active)

The molecule listed as COc1ccc(C2CC(=O)C(/C=N/CCCO)=C(O)C2)cc1 (stereo not drawn) shows EC50 equal to 37.9 µM (active)

----------
# measured-target: UniProtKB P55789
# Sequence (P55789 whole entry): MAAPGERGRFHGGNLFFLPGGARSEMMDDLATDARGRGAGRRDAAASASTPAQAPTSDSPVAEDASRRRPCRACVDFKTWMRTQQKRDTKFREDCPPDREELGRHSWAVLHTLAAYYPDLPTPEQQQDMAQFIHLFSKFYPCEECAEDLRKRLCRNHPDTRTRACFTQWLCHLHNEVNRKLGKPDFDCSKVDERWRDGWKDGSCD
# measurement-notes: ALR-catalysed DTT oxidation blockers – biochemical, H2O2 detection, luminescence, cherry-pick, dose response (AID 493248)
Activity calls are given as the source filed them.
endpoint-label: AC50

# AC50 measured on UniProtKB P55789 for item CC(C)(C)OC(=O)NCc1nnc(S)n1C1CC1 = 5.46 µM (active)

NC(=O)c1cc(N)ccc1N1CCCC1 tested on UniProtKB P55789 gave AC50: 4.01 µM (active)

AC50 on UniProtKB P55789 for CC(=O)Nc1ccc(SCc2ncc(-c3ccccc3)o2)cc1 is 0.44 µM (active)

UniProtKB P55789 assay, molecule [O-]c1c[n+](-c2ccc(-[n+]3cc([O-])on3)cc2)no1 , recorded AC50 = 4.1 µM (active)

AC50 for UniProtKB P55789 with input Cc1ccc2occ(C3N[C@H](C(=O)O)CS3)c(=O)c2c1 (stereo partly drawn) equals 0.392 µM (active)

Entry Cc1ccc(C)c(NC(=O)NNS(=O)(=O)c2ccc(C)c(C)c2)c1 ; assay system UniProtKB P55789; AC50 recorded at 3.8 µM (active)

Field AC50 (UniProtKB P55789), entry Oc1ccccc1/C=N/Nc1ccccc1 : 7.86 µM (active)

Record CCCn1c2ccc(/C(C)=N\O)cc2c2cc(/C(C)=N/O)ccc21 ; system UniProtKB P55789; AC50 = 0.028 µM (active)

----------
# measurement-notes: NIH3T3 cell viability loss – ATP luminescence, mouse fibroblasts, counter-screen, dose response (AID 2010);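 further: cells exposed to compound for about 90 hours before reading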
# Type: functional, cell-based
Activity calls are given as the source filed them.
Would you kindly list EC50 for each of these molecules?

Consider Cc1cccc(NS(=O)(=O)c2cc(C(=O)N3CCc4ccccc4C3)ccc2Cl)c1C . Its measured EC50 is > 60 µM (not active)

The molecule listed as Cc1ccc2nc(-c3ccncc3)cc(C(=O)NCCc3ccc(F)cc3)c2c1 has a reported EC50 of > 60 µM (not active)

The molecule identified as CCC(C)Nc1nc(-c2ccccn2)nc2ccccc12 (stereo not given) registered its EC50 at > 30 µM (not active)

response.value for COc1ccccc1CCNC1CCC(C(C)(C)C)CC1 (stereo not given) (field: EC50) = > 60 µM (not active)

Recorded EC50 (molecule Cc1nc2ccc(NC(=O)c3ccc([N+](=O)[O-])cc3[N+](=O)[O-])cc2s1 ): > 60 µM (not active)

The value of EC50 measured for the molecule Cc1ccc(Nc2c([N+](=O)[O-])nn(-c3ccc(Cl)cc3)[n+]2[O-])cc1C turned out to be > 60 µM (not active)

// sample Cc1ccc(-n2sc3ccccc3c2=O)cc1 , its EC50 was 9.71 µM (active)

Measured EC50, O=C(c1ccco1)N(CCCN1CCOCC1)c1nc(-c2ccc(Cl)cc2)cs1 : > 60 µM (not active)

EC50 in this record for COc1cccc(-c2cc3nc4c(c(NCC(C)(C)CN(C)C)n3n2)CCCC4)c1 : > 60 µM (not active)

Value of measured EC50 for the entry C/C(=N\NC(=O)c1cc(-c2cccc(OC(C)C)c2)nc2ccccc12)c1cccnc1 : > 30 µM (not active)

----------
Entries with reported AC50 on Cytochrome P450 1A2 (Homo sapiens, UniProt P05177)
Sequence (P05177 whole entry): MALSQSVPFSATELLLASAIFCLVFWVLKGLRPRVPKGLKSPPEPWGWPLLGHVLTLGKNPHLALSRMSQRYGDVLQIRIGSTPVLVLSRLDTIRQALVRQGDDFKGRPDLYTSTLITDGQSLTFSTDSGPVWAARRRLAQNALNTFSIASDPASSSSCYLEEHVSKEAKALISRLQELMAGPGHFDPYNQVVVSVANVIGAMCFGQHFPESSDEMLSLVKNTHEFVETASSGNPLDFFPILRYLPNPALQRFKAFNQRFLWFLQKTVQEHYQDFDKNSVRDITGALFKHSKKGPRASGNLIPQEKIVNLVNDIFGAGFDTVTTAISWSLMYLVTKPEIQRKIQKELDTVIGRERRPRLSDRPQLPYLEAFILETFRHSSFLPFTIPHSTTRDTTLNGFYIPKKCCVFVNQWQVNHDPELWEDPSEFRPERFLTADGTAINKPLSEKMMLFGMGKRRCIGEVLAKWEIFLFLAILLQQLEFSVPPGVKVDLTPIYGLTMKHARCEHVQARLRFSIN

# AC50 (compound: CC(C)(C)NC(=O)C(=O)N/N=C/c1ccc(Br)cc1 ) is 15.8 µM (inconclusive)

Item: CCc1ccc(N/C(SCc2ccccc2C)=C(/C#N)C(=O)NCc2ccco2)cc1 | AC50: 7.08 µM (inconclusive)

Quick note, AC50 for COc1nc(OCCNC(C)=O)nc(N(C)C)n1 landed at 39.8 µM (inconclusive)

Query Cc1nn(Cc2c(F)c(F)c(F)c(F)c2F)c(C)c1NC(=O)c1cccc(COc2ccc(Cl)cc2)c1 yields AC50 of 12.6 µM (inconclusive)

Briefly, AC50 measured for Cc1ccc(-c2nc3ccccc3s2)cc1NC(=S)NC(=O)c1ccccc1 : 15.8 µM (inconclusive)

----------
Provide the recorded EC50 for the entries that follow.
# measured-target: Streptokinase A (Streptococcus pyogenes serotype M1, UniProt P10520)
# Sequence (P10520 whole entry): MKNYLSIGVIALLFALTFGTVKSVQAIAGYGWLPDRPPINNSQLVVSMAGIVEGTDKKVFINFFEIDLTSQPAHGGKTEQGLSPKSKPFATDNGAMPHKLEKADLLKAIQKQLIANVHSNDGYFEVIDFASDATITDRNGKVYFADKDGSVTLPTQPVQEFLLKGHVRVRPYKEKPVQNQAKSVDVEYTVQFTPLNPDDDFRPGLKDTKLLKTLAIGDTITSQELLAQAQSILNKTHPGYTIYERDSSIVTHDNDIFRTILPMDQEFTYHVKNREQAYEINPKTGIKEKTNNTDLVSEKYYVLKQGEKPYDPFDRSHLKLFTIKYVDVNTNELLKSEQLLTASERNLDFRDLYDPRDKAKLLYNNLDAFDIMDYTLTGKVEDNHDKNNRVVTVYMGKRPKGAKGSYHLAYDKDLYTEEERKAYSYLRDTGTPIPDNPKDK
# measurement-notes: viability-normalized secreted streptokinase activity reduction – plasminogen activation absorbance, OD405, dose response (AID 1914);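 further: secreted streptokinase activity via plasminogen activation per viability signal from cell pellet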
# Assay type: functional, Streptococcus pyogenes M1 GAS
Calls of active or inactive are those of the source.

The reported value for C=CCn1c(O)cc(=O)nc1SC(C)CC (stereo unspecified) in terms of EC50 is > 150 µM (not active)

EC50 in this record for O=[N+]([O-])c1ccc(/C=[N+](\[O-])CCO)o1 : > 150 µM (not active)

For reference, reported EC50 for Cc1ccc2nc(Nc3nc(=O)cc(-c4ccccc4)[nH]3)nc(C)c2c1 stands at > 150 µM (not active)

Looking up COc1cccc(NC(S)=NN=C2CCCCCC2)c1 , I found its EC50 recorded as > 150 µM (not active)

Measured EC50, c1ccc(-c2onc(-c3ccco3)c2-c2ccc3[nH]ccc3c2)cc1 : 4.99 µM (active)

// sample O=C(Cc1csc(NC(=O)Nc2cccc(Cl)c2)n1)NCc1cccnc1 , its EC50 was > 150 µM (not active)

O=C(Nc1nnc(C2CC2)s1)c1cc(-c2ccccc2)nn1-c1ccccc1 yielded EC50 of 8.32 µM (active)

Value of measured EC50 for the entry Cc1ccc(C(=O)Nc2nnc(C3=COCCO3)o2)cc1C : > 150 µM (not active)

// EC50 value for Cc1cc(C)c2nc(NNC(=O)c3cc(=O)c4ccccc4o3)sc2c1 : > 150 µM (not active)

GET /value?item= O=C(O)CCn1cc(/C=C/C(=O)c2ccc(Cl)cc2)c(-c2cccc(Br)c2)n1 &field=EC50 returns 0.874 µM (active)

Documented EC50 of CC[C@@H](C)[C@H](NC(=O)OC(C)(C)C)c1nnc(S(=O)(=O)Cc2cc(C)ccc2C)o1 : 3.43 µM (active)

Recorded result, O=C(NC(NC(=S)Nc1cccc(Cl)c1)C(Cl)(Cl)Cl)OCc1ccccc1 (stereo unspecified) , EC50: 3.92 µM (active)

Summary for this compound, CCCCC1CCC(c2nc(-c3ccccn3)no2)CC1 (stereo unspecified) : EC50 is > 150 µM (not active)

Record Cc1nn(C)c(C(=O)Nc2ccc(S(=O)(=O)NC34CC5CC(CC(C5)C3)C4)cc2)c1Br , field EC50: 16.8 µM (active)

Lab note: measured EC50 of CCC(C(=O)N1CCC(N2CCCCC2)CC1)n1nc(C)c2sc3ccccc3c2c1=O (stereo unspecified) was > 150 µM (not active)

Given item CC1(C)OC(C(O)(c2ccccc2)c2ccccc2)[C@@H](C(O)(c2ccccc2)c2ccccc2)O1 (stereo partly specified) , the value recorded as its EC50 is 2.78 µM (active)

Given item O=C(CSc1nc(N2CCOCC2)nc(N2CCOCC2)n1)Nc1cccc(C(F)(F)F)c1 , the value recorded as its EC50 is > 150 µM (not active)

So for COc1cccc(-n2nnc3c(=O)n(Cc4ccccc4Cl)cnc32)c1 , the logged EC50 turned out to be > 150 µM (not active)

EC50 measured on CCCC(=O)NC(c1ccc(Cl)cc1)c1ccc2cccnc2c1O (stereo unspecified) = > 150 µM (not active)

Given item Cc1ccc(-n2sc3ccccc3c2=O)cc1 , the value recorded as its EC50 is > 150 µM (not active)

Looking up COc1cc(/C=N/Nc2ncnc3sc4c(c23)CCC4)ccc1O , I found its EC50 recorded as 5.06 µM (active)
